Structures can show the parent of a compound that is named as a salt.
Examples of molecules with documented melting point follow.

                                   molecule    metric_name     meas_value
0  CN1Cc2cc(-c3cccnn3)ccc2C(c2ccc3sccc3c2)C1 (single isomer, unassigned; (+)) (as salt: fumarate)  melting point  122 to 124 °C
1  CN1Cc2ccccc2C(c2ccc3c(ccn3Cc3ccccc3)c2)C1 (racemic) (as salt: maleate)  melting point    81 to 85 °C
2  CN1Cc2cc(N3CCOCC3)ccc2C(c2cc3ccccc3s2)C1 (stereo not shown) (as salt: maleate)  melting point  142 to 145 °C

Moving on to another molecule below.
For CN(C)Cc1ccc2c(c1)CN(C)CC2c1ccc2sccc2c1 (racemic) (as salt: fumarate) the molecule record lists melting point as 123 to 125 °C

* * *

Examples of compounds with documented melting point follow.
Where a name gives a salt, the structure may show the parent alone.

Some compounds with known melting point results, for comparison:
>>> df
                                   compound    metric_name     meas_value
0  CN1Cc2cc(-c3ncccn3)ccc2C(c2cc3ccccc3s2)C1 (racemic) (as salt: maleate)  melting point  103 to 106 °C
1  CN1Cc2cc(C#N)ccc2C(c2ccc3sccc3c2)C1 (centres unmarked) (as salt: fumarate)  melting point  112 to 114 °C
2  COc1c(C2CN(C)Cc3ccccc32)ccc2ccsc12 (centres unmarked) (as salt: fumarate)  melting point    98 to 99 °C
3  CN1Cc2cc(-c3cccnn3)ccc2C(c2cc3ccccc3s2)C1 (centres unmarked) (as salt: maleate)  melting point   99 to 102 °C
4  CN1Cc2ccccc2C(c2ccc3sncc3c2)C1.O=C(O)/C=C\C(=O)O (single isomer, unassigned; (+)) [Example 135]  melting point  145 to 147 °C

For CN1Cc2ccccc2C(c2ccc3cn[nH]c3c2)C1.O=C(O)/C=C/C(=O)O (centres unmarked) the compound record lists melting point as 110 to 117 °C

For COc1c(-c2cccnn2)ccc2c1CN(C)CC2c1ccc2ccccc2c1.O=C(O)/C=C/C(=O)O (racemic) the compound record lists melting point as 182 to 186 °C

For CN1Cc2cc(-c3cnccn3)ccc2C(c2cc3ccccc3s2)C1 (racemic) (as salt: maleate) [Example 71] the compound record lists melting point as 102 to 105 °C

* * *

# SYSTEM UNDER TEST: DAT (Homo sapiens, UniProt Q01959)
# Construct: cDNAs containing the complete coding regions of each transporter were amplified by PCR from human brain libraries; expressed in transfected cells; host or cells: HEK293E
# Sequence (Q01959 whole entry): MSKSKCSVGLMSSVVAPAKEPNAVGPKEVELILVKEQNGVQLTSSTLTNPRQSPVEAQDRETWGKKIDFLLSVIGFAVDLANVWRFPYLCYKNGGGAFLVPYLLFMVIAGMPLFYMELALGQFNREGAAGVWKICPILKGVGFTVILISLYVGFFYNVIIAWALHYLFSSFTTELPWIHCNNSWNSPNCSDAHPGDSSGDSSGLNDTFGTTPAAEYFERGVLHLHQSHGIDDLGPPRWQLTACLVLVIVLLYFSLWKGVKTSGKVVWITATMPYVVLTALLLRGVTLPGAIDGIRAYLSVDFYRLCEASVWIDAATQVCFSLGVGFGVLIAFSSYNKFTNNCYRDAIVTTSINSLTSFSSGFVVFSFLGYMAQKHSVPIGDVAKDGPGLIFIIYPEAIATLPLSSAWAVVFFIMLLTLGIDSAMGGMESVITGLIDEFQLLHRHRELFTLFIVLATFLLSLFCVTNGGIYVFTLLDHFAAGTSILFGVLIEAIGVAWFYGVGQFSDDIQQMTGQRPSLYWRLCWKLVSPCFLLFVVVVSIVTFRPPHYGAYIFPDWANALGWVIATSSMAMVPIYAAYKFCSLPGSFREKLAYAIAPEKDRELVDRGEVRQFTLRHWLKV
# PROTOCOL: biochemical
# Assay type: binding
Counter-ions that a name gives are not always drawn.
METRIC NAME: log10 Ki (log10 of the value in nM)
Lab note - Ki converted to log10 from values in nM.

Some compounds with known log10 Ki results, for comparison:
>>> df
                                   compound  metric_name  meas_value
0  Cc1noc(C)c1C1CN(C)Cc2ccccc21 (racemic) [4-(3,5-dimethyl-isoxazol-4-yl, reference compound]     log10 Ki        5.11
1  CN1Cc2ccccc2C(c2cccs2)C1 (racemic) [thiophen-2-yl, reference compound]     log10 Ki        3.78
2  Cc1csc(C2CN(C)Cc3ccccc32)c1 (racemic) [4-methyl-thiophen-2-yl, reference compound]     log10 Ki        3.35
3  CCN1Cc2ccccc2C(c2ccc3cn[nH]c3c2)C1 (single isomer, unassigned; (+)) [Example 130, maleate salt]     log10 Ki        2.02

Item: CN1Cc2ccccc2C(c2ccc3sncc3c2)C1.O=C(O)/C=C\C(=O)O (single isomer, unassigned; (+)) [Example 135, maleate salt] | System: DAT (Homo sapiens, UniProt Q01959) | log10 Ki: 1.90

Item: Cc1noc(C)c1-c1ccc2c(c1)CN(C)CC2c1ccc2ccccc2c1 (racemic) [Example 142, maleate salt] | System: DAT (Homo sapiens, UniProt Q01959) | log10 Ki: 2.02

Item: CN1Cc2ccccc2C(c2cc(Cl)c3[nH]ncc3c2)C1 (single isomer, unassigned; (-)) [Example 125, maleate salt] | System: DAT (Homo sapiens, UniProt Q01959) | log10 Ki: 1.06

Taken from patent US20060063766A1.
